List of IC50 of inhibition of human MMP9 activity (cleavage of 5-FAM/QXL 520 FRET peptide, 37°C) values.
biological target: catalytic domain of human MMP9 (human)
# output: bare number, implied unit nM

Consider the reported IC50 of inhibition of human MMP9 activity (cleavage of 5-FAM/QXL 520 FRET peptide, 37°C) for these binders:
binder	observed value
WT‐HSA (wild‐type TIMP3 fused with human serum albumin) (protein) CTCSPSHPQDAFCNSDIVIRAKVVGKKLVKEGPFGTLVYTIKQMKMYRGFTKMPHVQYIHTEASESLCGLKLEVNKYQYLLTGRVYDGKMYTGLCNFVERWDQLTLSQRKGLNYRYHLGCNCKIKSCYYLPCFVTSKNECLWTDMLSNFGYPGYQSKHYACIRQKGGYCSWYRGWAPPDKSIINATDP	0.6
v82‐Fc (v82 with Fc fused in the C‐terminus) (Fc fusion, additional glycosylation sites) CTCSPSHPQDAFCNSDIVIRAKVVGKKLVKEGPFGTLVYTIKQMKMYRGFTKMPNVTYIHTEASESLCGLNLTVNKYQYLLTGRVYNGTMYTGLCNFVERWDQLTLSQRKGLNYTYHLGCNCKIKSCYYLPCFVTSKNECLWTDMLSNFGYPGYQSKHYACIRQKGGYCSWYRGWAPPDKSIINATDP	10.5

Now look at this one.
Requested field: IC50 of inhibition of human MMP9 activity (cleavage of 5-FAM/QXL 520 FRET peptide, 37°C). Item: N‐TIMP3 (13.9 kDa N‐domain; aa 1‐120) (domain or fragment) CTCSPSHPQDAFCNSDIVIRAKVVGKKLVKEGPFGTLVYTIKQMKMYRGFTKMPHVQYIHTEASESLCGLKLEVNKYQYLLTGRVYDGKMYTGLCNFVERWDQLTLSQRKGLNYRYHLGC
1.5
